Target: Orphan methyltransferase M.SssI (Spiroplasma monobiae, UniProt P15840)
Sequence (P15840 whole entry): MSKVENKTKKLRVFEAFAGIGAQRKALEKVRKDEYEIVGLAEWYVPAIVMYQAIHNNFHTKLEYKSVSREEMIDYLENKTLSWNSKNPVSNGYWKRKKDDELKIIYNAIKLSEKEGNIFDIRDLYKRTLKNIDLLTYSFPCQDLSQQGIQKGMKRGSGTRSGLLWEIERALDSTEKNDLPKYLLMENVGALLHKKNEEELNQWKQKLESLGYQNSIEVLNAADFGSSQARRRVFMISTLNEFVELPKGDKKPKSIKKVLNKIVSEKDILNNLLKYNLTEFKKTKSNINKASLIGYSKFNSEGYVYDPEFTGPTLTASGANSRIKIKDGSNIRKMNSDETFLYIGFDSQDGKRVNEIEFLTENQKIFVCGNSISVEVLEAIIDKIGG
Assay: Competitive inhibition of Spiroplasma sp. MQ1 SssI methyltransferase using pUC18 as substrate measured for 10 mins by Dixon plot analysis
Overview of recorded log10 Ki for various compounds
propertyMeasured: log10 Ki (log10 of the value in µM)

- structureString: "O=C1N=C(NCc2ccco2)NCN1"
  log10 Ki: -0.15
- structureString: "Cc1cn([C@H]2C[C@H](O)[C@@H](CO)O2)c(=O)nc1NCc1ccco1"
  log10 Ki: 2.40
- structureString: "O=c1nc(NCc2ccccc2)cc[nH]1"
  log10 Ki: 1.00
- structureString: "Cc1c[nH]c(=O)nc1NCc1ccccc1"
  log10 Ki: 0.56
- structureString: "O=c1nc(NCc2cccnc2)cc[nH]1"
  log10 Ki: 2.60
